Listing of entries alongside the reported IRF reporter.
- System: RAW-Dual (murine macrophage reporter line)
- Assay: IRF reporter (Lucia luciferase) activity fold change vs agonist alone; higher = enhanced IRF activity
- Particulars: modulator concentration 10 µM; agonist: 3'3'-cGAMP 10 ug/mL
Please give only the number in your answer, with no unit.

Please review the following examples before continuing.
Molecule	Tested System	IRF reporter
Nc1ccn(C[C@@H](CO)OCP(=O)(O)O)c(=O)n1	RAW-Dual (murine macrophage reporter line)	0.906
O=C(NCc1ccco1)C(=Cc1ccc(-c2ccccc2Cl)o1)NC(=O)c1ccccc1	RAW-Dual (murine macrophage reporter line)	0.476
COc1ccc(C2=CC(c3cc(OC)c(OC)c(OC)c3)n3ncnc3N2)cc1 (stereo unspecified)	RAW-Dual (murine macrophage reporter line)	1.15

Here is another molecule to look at.
[in] // lookup IRF reporter | system=RAW-Dual (murine macrophage reporter line) | key= Oc1ccc(CN2CCOCC2)cc1
[out] 0.939
